System: D(2) dopamine receptor (Rattus norvegicus)
Sequence (P61169 whole entry): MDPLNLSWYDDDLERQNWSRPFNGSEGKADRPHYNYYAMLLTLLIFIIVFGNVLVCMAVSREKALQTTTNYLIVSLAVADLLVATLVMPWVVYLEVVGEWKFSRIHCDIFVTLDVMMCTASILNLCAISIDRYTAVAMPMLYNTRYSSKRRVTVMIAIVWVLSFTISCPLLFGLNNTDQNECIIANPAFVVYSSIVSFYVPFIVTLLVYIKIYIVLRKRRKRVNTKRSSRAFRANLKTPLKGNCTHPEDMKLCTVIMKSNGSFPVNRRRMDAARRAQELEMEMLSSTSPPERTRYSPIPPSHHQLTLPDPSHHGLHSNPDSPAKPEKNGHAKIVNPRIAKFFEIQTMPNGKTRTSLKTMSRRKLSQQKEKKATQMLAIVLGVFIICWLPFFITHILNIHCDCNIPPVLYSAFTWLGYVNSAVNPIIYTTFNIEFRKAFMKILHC
Method notes: Ability to displace [3H]spiperone from D2 dopamine receptor isolated from the striata of male Wistar rats
pKi: −log10 of the molar value.
Kindly return Criterion met if reported pKi is no lower than 8; return Criterion not met if it is lower.

                                 smiles_str                                    system        group_label
0  CCCCCCCCCN1CCC[C@@H]1CNC(=O)c1cc(Cl)cc2c1OCC2  D(2) dopamine receptor (Rattus norvegicus)  Criterion not met
1  CSc1cc(C(=O)NC[C@H]2CCCN2Cc2ccccc2)c2c(c1)N(C)CCO2  D(2) dopamine receptor (Rattus norvegicus)      Criterion met
2  CN1CCOc2c(C(=O)NC[C@H]3CCCN3Cc3ccccc3)cc(Cl)cc21  D(2) dopamine receptor (Rattus norvegicus)  Criterion not met

Then there is this molecule:
Q: Is pKi at least 8? Consider `CCCCN1CCC[C@@H]1CNC(=O)c1cc(Cl)cc2c1OCC(=O)N2C`
A: Criterion not met

----------
Examples of compounds with documented pKi follow.
System: 5-hydroxytryptamine receptor 1A (Rattus norvegicus, UniProt P19327)
Sequence (P19327 whole entry): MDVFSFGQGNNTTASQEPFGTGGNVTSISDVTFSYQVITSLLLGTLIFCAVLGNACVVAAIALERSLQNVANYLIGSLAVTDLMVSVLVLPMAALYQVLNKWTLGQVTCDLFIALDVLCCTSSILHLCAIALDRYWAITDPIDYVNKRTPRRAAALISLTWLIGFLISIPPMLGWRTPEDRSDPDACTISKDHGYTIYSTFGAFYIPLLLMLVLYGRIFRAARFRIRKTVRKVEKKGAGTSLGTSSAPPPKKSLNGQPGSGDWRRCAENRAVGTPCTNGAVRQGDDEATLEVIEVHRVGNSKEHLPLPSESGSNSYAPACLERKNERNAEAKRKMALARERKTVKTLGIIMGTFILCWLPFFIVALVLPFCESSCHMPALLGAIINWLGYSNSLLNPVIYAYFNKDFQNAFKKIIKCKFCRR
Method notes: Compound was evaluated for its ability to displace [3H]8-OH-DPAT from serotonergic 5-hydroxytryptamine 1A receptor
# pKi: negative log10 of molar concentration; output just the value

Consider the worked cases shown below.
>>> df
                                   compound  attribute_measured  measured_number
0  CCCCN1CCC[C@@H]1CNC(=O)c1cc(S(N)(=O)=O)ccc1OC                 pKi             5.35
1  CCCCN1CCCC1CNC(=O)c1cccc2c1OCCN2C (stereo not drawn)                 pKi             6.77
2  CCCCN1CCC[C@H]1CNC(=O)c1cc(S(N)(=O)=O)ccc1OC                 pKi             5.92
3  CCCCN1CCC[C@H]1CNC(=O)c1cc(Cl)cc2c1OCCN2C                 pKi             7.47
4  CCCCCCCCCN1CCC[C@H]1CNC(=O)c1cc(Cl)cc2c1OCCN2C                 pKi             6.55

Q: Param item = `CCCCN1CCC[C@@H]1CNC(=O)c1cc(Cl)cc2c1OCCN2C` ; retrieve measured pKi.
A: 6.37

Q: Next entry: CCCCN1CCCC1CNC(=O)c1cc(S(N)(=O)=O)cc2c1OCCN2C (stereo not drawn)
A: 6.35

----------
System: 5-hydroxytryptamine receptor 1A (Rattus norvegicus)
Method notes: Ability to displace [3H]-8-OH-DPAT from serotonergic 5-hydroxytryptamine 1A receptor
pKi: −log10 of the molar value.
Attribute measured: pKi

In [3]: df
Out[3]:
                                 smiles_str  result
0  CCN1CCC[C@@H]1CNC(=O)c1cc(Cl)cc2c1OCCN2C  < 6.00

Q: Param item = `CN1CCOc2c(C(=O)NC[C@H]3CCCN3CCc3ccccc3)cc(Cl)cc21` ; retrieve measured pKi.
A: 7.46

Q: Next entry: `CCN1CCC[C@@H]1CNC(=O)c1cc(Cl)cc2c1OCC2`
A: < 6.00

Q: Next entry: `CCN1CCC[C@H]1CNC(=O)c1cc(Cl)cc2c1OCCN2C`
A: < 6.00

----------
System: 5-hydroxytryptamine receptor 1A (Rattus norvegicus, UniProt P19327)
Method notes: Ability to displace [3H]-8-OH-DPAT from serotonergic 5-hydroxytryptamine 1A receptor
Attribute measured: Ki

Consider the worked cases shown below.
                                 smiles_str  attribute_measured  result
0  CCN1CCC[C@@H]1CNC(=O)c1cc(Cl)cc2c1OCC(=O)N2C                  Ki  > 1 µM
1  CCCCN1CCC[C@H]1CNC(=O)c1cc(Cl)cc2c1OCC(=O)N2C                  Ki  > 1 µM
2     CCN1CCC[C@H]1CNC(=O)c1cc(Cl)cc2c1OCC2                  Ki  > 1 µM

Now turn to the next molecule.
Q: Param item = `CCCCN1CCC[C@H]1CNC(=O)c1cc(SC)cc2c1OCCN2C` ; retrieve measured Ki.
A: 0.019 µM

----------
Examples of molecules with documented pKi follow.
System: 5-hydroxytryptamine receptor 1A (Rattus norvegicus)
Method notes: Ability to displace [3H]-8-OH-DPAT from serotonergic 5-hydroxytryptamine 1A receptor
# pKi: negative log10 of molar concentration; output just the value

In [3]: df
Out[3]:
                                smiles_str  measured_number
0  CCCCN1CCC[C@H]1CNC(=O)c1cc(Cl)cc2c1OCC2             7.74

Now turn to the next molecule.
Q: Param item = `CSc1cc(C(=O)NC[C@H]2CCCN2Cc2ccccc2)c2c(c1)N(C)CCO2` ; retrieve measured pKi.
A: 7.77

The measurements presented in this section are drawn from ChEMBL document CHEMBL1150436.
